test system: 192522-019-R-J2-PDC complex tumor spheroid viability; assay: Anticancer human tumor 192522-019-R-J2-PDC patient-derived colon adenocarcinoma cell line growth inhibition [POLQ]; conditions: second compound 0.0316 µM; first compound 0.316 µM; stronger effect = lower value
# viability, T/C per record follows
Answer in %, number only, no unit symbol.

Example results:
molecule | value observed
CCc1cc2c(N3CCc4c(cc(Cn5ccnc5)cc4-c4cn(C)nc4C(F)(F)F)C3=O)ccnc2c(OC)n1 + Nc1ccc(C#CCN(C(=O)Cc2ncc(C(F)(F)F)cc2C(F)(F)F)c2ccc(F)cc2)nn1 | 91.9
C=CCn1c(=O)c2cnc(Nc3ccc(N4CCN(C)CC4)cc3)nc2n1-c1cccc(C(C)(C)O)n1 + Nc1ccc(C#CCN(C(=O)Cc2ncc(C(F)(F)F)cc2C(F)(F)F)c2ccc(F)cc2)nn1 | 92.4
C=CC(=O)N1CCN(c2nc(=O)n(-c3c(C)ccnc3C(C)C)c3nc(-c4c(O)cccc4F)c(F)cc23)C(C)C1 (stereo not given) + COC1C(OC(N)=O)C(O)C(Oc2ccc3c(O)c(NC(=O)c4ccc(O)c(CC=C(C)C)c4)c(=O)oc3c2C)OC1(C)C | 103

-- ask What value of viability, T/C has been reported for the following molecule? C=CC(=O)N1CCN(c2nc(=O)n(-c3c(C)ccnc3C(C)C)c3nc(-c4c(O)cccc4F)c(F)cc23)C(C)C1 (stereo not given) + Cc1cccc(N(C)C(=O)C2C(O)CCN2c2nc(C)cc(C(F)(F)F)c2C#N)c1
-- reply 101

-- ask For C=CC(=O)N1CCN(c2nc(=O)n(-c3c(C)ccnc3C(C)C)c3nc(-c4c(O)cccc4F)c(F)cc23)C(C)C1 (stereo not given) + Nc1ccc(C#CCN(C(=O)Cc2ncc(C(F)(F)F)cc2C(F)(F)F)c2ccc(F)cc2)nn1 then?
-- reply 96.7

====

# viability, T/C per record follows
test system: 192522-019-R-J2-PDC complex tumor spheroid viability; test: Anticancer human tumor 192522-019-R-J2-PDC cell line growth inhibition [POLQ]; details: second compound 0.316 µM; first compound 10 µM; stronger effect = lower value;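 further: spheroids exposed to drugs for seven days before reading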;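 on viability, T/C: 100% = DMSO vehicle control viability in luminescence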
Answer in %, number only, no unit symbol.

compound | quantity unit | viability, T/C
C#Cc1c(F)ccc2cc(O)cc(-c3ncc4c(N5CC6CCC(C5)N6)nc(OCC56CCCN5CC(F)C6)nc4c3F)c12 (stereo not given) + Nc1ccc(C#CCN(C(=O)Cc2ncc(C(F)(F)F)cc2C(F)(F)F)c2ccc(F)cc2)nn1 | % | 76.2
COc1ccc([C@@H](O)c2cc(-c3ncnc4cc(N5CCOCC5)ccc34)c(F)cc2Cl)nn1 + Nc1ccc(C#CCN(C(=O)Cc2ncc(C(F)(F)F)cc2C(F)(F)F)c2ccc(F)cc2)nn1 | % | 59.9
COc1cc(C2c3cc4c(cc3C(OC3OC5COC(C)OC5C(O)C3O)C3COC(=O)C23)OCO4)cc(OC)c1O (stereo not given) + COC1C(OC(N)=O)C(O)C(Oc2ccc3c(O)c(NC(=O)c4ccc(O)c(CC=C(C)C)c4)c(=O)oc3c2C)OC1(C)C | % | 64

-- ask Look up viability, T/C with 192522-019-R-J2-PDC complex tumor spheroid viability for this compound: O=C(c1cc(Cc2n[nH]c(=O)c3ccccc23)ccc1F)N1CCN(C(=O)C2CC2)CC1 + COC1C(OC(N)=O)C(O)C(Oc2ccc3c(O)c(NC(=O)c4ccc(O)c(CC=C(C)C)c4)c(=O)oc3c2C)OC1(C)C
-- reply 90.5

-- ask For O=C(Nc1ccc(O)c(NS(=O)(=O)c2ccc(F)cc2)c1)c1ccc(-c2ccccc2)cc1 + Cc1cccc(N(C)C(=O)C2C(O)CCN2c2nc(C)cc(C(F)(F)F)c2C#N)c1 then?
-- reply 101

====

Test system: 192522-019-R-J2-PDC complex tumor spheroid viability
Experiment: Anticancer human tumor 192522-019-R-J2-PDC cell line growth inhibition [POLQ];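 further: spheroids exposed to drugs for seven days before reading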
Details: curve of first compound; second compound 1 µM
Description: Multicellular complex tumor spheroid response to Polymerase (POL) inhibitors (novobiocin, ART-558, RP6685) in combination with a variety of drugs and investigational agents in selected tumor cell lines The POL inhibitors (novobiocin, ART-558, and RP6685) were evaluated both individually and in combination with standard of care and investigational anticancer small molecules within a complex spheroid model of solid tumors. . […]
value type: IC50

Example results:
compound | value observed
O=c1[nH]cc(F)c(=O)[nH]1 + Nc1ccc(C#CCN(C(=O)Cc2ncc(C(F)(F)F)cc2C(F)(F)F)c2ccc(F)cc2)nn1 | > 10 µM
Cn1ncnc1[C@H]1c2n[nH]c(=O)c3cc(F)cc(c23)N[C@@H]1c1ccc(F)cc1 + Nc1ccc(C#CCN(C(=O)Cc2ncc(C(F)(F)F)cc2C(F)(F)F)c2ccc(F)cc2)nn1 | > 0.1 µM
O=C(c1cc(Cc2n[nH]c(=O)c3ccccc23)ccc1F)N1CCN(C(=O)C2CC2)CC1 + Nc1ccc(C#CCN(C(=O)Cc2ncc(C(F)(F)F)cc2C(F)(F)F)c2ccc(F)cc2)nn1 | > 10 µM
CNCc1ccc(-c2[nH]c3cc(F)cc4c3c2CCNC4=O)cc1 + COC1C(OC(N)=O)C(O)C(Oc2ccc3c(O)c(NC(=O)c4ccc(O)c(CC=C(C)C)c4)c(=O)oc3c2C)OC1(C)C | > 10 µM

Now examine the next entry.
-- ask What value of IC50 has been reported for the following compound? COc1cccc2c1C(=O)c1c(O)c3c(c(O)c1C2=O)CC(O)(C(=O)CO)CC3OC1CC(N)C(O)C(C)O1 (stereo not given) + Nc1ccc(C#CCN(C(=O)Cc2ncc(C(F)(F)F)cc2C(F)(F)F)c2ccc(F)cc2)nn1
-- reply > 10 µM

====

test system: 192522-019-R-J2-PDC complex tumor spheroid viability; experiment: Anticancer human tumor 192522-019-R-J2-PDC cell line growth inhibition [POLQ]; conditions: second compound 10 µM; first compound 1 µM; stronger effect = lower value;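 further: spheroids exposed to drugs for seven days before reading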;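 on viability, T/C: 100% = DMSO vehicle control viability in luminescence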
value type: viability, T/C
The reply should read as a number followed by its unit.

Example results:
compound | viability, T/C
CCc1cc2c(N3CCc4c(cc(Cn5ccnc5)cc4-c4cn(C)nc4C(F)(F)F)C3=O)cc(C)nc2c(OC)n1 + COC1C(OC(N)=O)C(O)C(Oc2ccc3c(O)c(NC(=O)c4ccc(O)c(CC=C(C)C)c4)c(=O)oc3c2C)OC1(C)C | 80.6%
COc1cccc(OCCCN)c1-c1cc(Nc2cnc(C#N)cn2)n[nH]1 + COC1C(OC(N)=O)C(O)C(Oc2ccc3c(O)c(NC(=O)c4ccc(O)c(CC=C(C)C)c4)c(=O)oc3c2C)OC1(C)C | 34%
Nc1ccn(C2OC(CO)C(O)C2(F)F)c(=O)n1 (stereo not given) + Cc1cccc(N(C)C(=O)C2C(O)CCN2c2nc(C)cc(C(F)(F)F)c2C#N)c1 | 74.3%
CCc1cc2c(N3CCc4c(cc(Cn5ccnc5)cc4-c4cn(C)nc4C(F)(F)F)C3=O)cc(C)nc2c(OC)n1 + Cc1cccc(N(C)C(=O)C2C(O)CCN2c2nc(C)cc(C(F)(F)F)c2C#N)c1 | 90.1%

Now examine the next entry.
-- ask What value of viability, T/C has been reported for the following compound? CC1COCCN1c1cc(C2(S(C)(=N)=O)CC2)nc(-c2ccnc3[nH]ccc23)n1 (stereo not given) + Nc1ccc(C#CCN(C(=O)Cc2ncc(C(F)(F)F)cc2C(F)(F)F)c2ccc(F)cc2)nn1
-- reply 105%

====

test system: 192522-019-R-J2-PDC complex tumor spheroid viability; assay: Anticancer human tumor 192522-019-R-J2-PDC cell line growth inhibition [POLQ]; conditions: second compound 0.316 µM; first compound 3.16 µM; stronger effect = lower value;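 further: spheroids exposed to drugs for seven days before reading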;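 on viability, T/C: 100% = DMSO vehicle control viability in luminescence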
value type: viability, T/C (%)
Answer in %, number only, no unit symbol.

compound | viability, T/C / %
C#Cc1c(F)ccc2cc(O)cc(-c3ncc4c(N5CC6CCC(C5)N6)nc(OCC56CCCN5CC(F)C6)nc4c3F)c12 (stereo unspecified) + Cc1cccc(N(C)C(=O)C2C(O)CCN2c2nc(C)cc(C(F)(F)F)c2C#N)c1 | 79.3
CNCc1ccc(-c2[nH]c3cc(F)cc4c3c2CCNC4=O)cc1 + COC1C(OC(N)=O)C(O)C(Oc2ccc3c(O)c(NC(=O)c4ccc(O)c(CC=C(C)C)c4)c(=O)oc3c2C)OC1(C)C | 99.5
CC(C)n1c(=O)n(C)c2cnc3cc(F)c(-c4ccc(OCCCN5CCCCC5)nc4)cc3c21 + Nc1ccc(C#CCN(C(=O)Cc2ncc(C(F)(F)F)cc2C(F)(F)F)c2ccc(F)cc2)nn1 | 123
COc1ccc([C@@H](O)c2cc(-c3ncnc4cc(N5CCOCC5)ccc34)c(F)cc2Cl)nn1 + COC1C(OC(N)=O)C(O)C(Oc2ccc3c(O)c(NC(=O)c4ccc(O)c(CC=C(C)C)c4)c(=O)oc3c2C)OC1(C)C | 97.8
COc1cc(C2c3cc4c(cc3C(OC3OC5COC(C)OC5C(O)C3O)C3COC(=O)C23)OCO4)cc(OC)c1O (stereo unspecified) + Nc1ccc(C#CCN(C(=O)Cc2ncc(C(F)(F)F)cc2C(F)(F)F)c2ccc(F)cc2)nn1 | 67

-- ask What value of viability, T/C has been reported for the following compound? Nc1ccn(C2OC(CO)C(O)C2(F)F)c(=O)n1 (stereo unspecified) + Nc1ccc(C#CCN(C(=O)Cc2ncc(C(F)(F)F)cc2C(F)(F)F)c2ccc(F)cc2)nn1
-- reply 83.5

-- ask For O=C(c1cc(Cc2n[nH]c(=O)c3ccccc23)ccc1F)N1CCN(C(=O)C2CC2)CC1 + Cc1cccc(N(C)C(=O)C2C(O)CCN2c2nc(C)cc(C(F)(F)F)c2C#N)c1 then?
-- reply 106

-- ask For O=c1[nH]cc(F)c(=O)[nH]1 + COC1C(OC(N)=O)C(O)C(Oc2ccc3c(O)c(NC(=O)c4ccc(O)c(CC=C(C)C)c4)c(=O)oc3c2C)OC1(C)C then?
-- reply 71.1

-- ask For COc1ccc([C@@H](O)c2cc(-c3ncnc4cc(N5CCOCC5)ccc34)c(F)cc2Cl)nn1 + Nc1ccc(C#CCN(C(=O)Cc2ncc(C(F)(F)F)cc2C(F)(F)F)c2ccc(F)cc2)nn1 then?
-- reply 75.3

-- ask For CCCS(=O)(=O)Nc1ccc(F)c(C(=O)c2c[nH]c3ncc(-c4ccc(Cl)cc4)cc23)c1F + Cc1cccc(N(C)C(=O)C2C(O)CCN2c2nc(C)cc(C(F)(F)F)c2C#N)c1 then?
-- reply 105

-- ask For O=C(c1cc(Cc2n[nH]c(=O)c3ccccc23)ccc1F)N1CCN(C(=O)C2CC2)CC1 + COC1C(OC(N)=O)C(O)C(Oc2ccc3c(O)c(NC(=O)c4ccc(O)c(CC=C(C)C)c4)c(=O)oc3c2C)OC1(C)C then?
-- reply 105
